target: NTRK1 (human) (UniProt P04629); test: radiometric filter-binding kinase assay; settings: compound 10.0 µM
Sequence (P04629 whole entry, looked up): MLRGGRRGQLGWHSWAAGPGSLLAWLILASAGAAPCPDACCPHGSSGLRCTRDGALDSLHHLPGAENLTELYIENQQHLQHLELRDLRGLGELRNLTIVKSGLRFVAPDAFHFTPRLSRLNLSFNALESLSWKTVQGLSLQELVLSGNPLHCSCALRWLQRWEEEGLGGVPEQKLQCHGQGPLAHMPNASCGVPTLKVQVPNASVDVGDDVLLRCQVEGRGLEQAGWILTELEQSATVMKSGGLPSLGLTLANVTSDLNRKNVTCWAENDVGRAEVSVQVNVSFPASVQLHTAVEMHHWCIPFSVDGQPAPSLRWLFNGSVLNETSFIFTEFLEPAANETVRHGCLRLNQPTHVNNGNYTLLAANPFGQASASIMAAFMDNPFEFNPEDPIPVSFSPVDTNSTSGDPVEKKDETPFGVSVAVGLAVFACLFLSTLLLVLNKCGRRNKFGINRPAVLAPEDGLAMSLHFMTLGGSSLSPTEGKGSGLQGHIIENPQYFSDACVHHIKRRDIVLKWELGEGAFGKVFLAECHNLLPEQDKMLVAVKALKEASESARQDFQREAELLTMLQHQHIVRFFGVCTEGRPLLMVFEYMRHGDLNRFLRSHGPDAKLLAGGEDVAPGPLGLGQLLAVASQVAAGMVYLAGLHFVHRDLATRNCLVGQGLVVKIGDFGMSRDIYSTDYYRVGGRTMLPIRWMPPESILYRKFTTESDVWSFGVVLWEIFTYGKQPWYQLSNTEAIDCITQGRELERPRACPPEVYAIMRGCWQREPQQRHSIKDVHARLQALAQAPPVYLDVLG
For each record, write down the corresponding residual activity.
Numbers only, in %.

Please review the following examples before continuing.
O=c1c(O)c(-c2ccc(O)c(O)c2)oc2cc(O)c(O)c(O)c12    29
NC(=O)c1ccc(-c2ccc(Oc3cncc4sc(-c5nn[nH]n5)cc34)cc2)cc1    89
Nc1cccc2c1CN(C1CCC(=O)NC1=O)C2=O (stereo unspecified)    141

Hello, I would appreciate it if you could give residual activity for each entry below.
1. N#Cc1c(C2CCNCC2)cc(-c2c(O)cccc2OCC2CC2)nc1N
2. NS(=O)(=O)OC[C@@H]1C[C@@H](n2ccc3c(N[C@H]4CCc5ccccc54)ncnc32)C[C@@H]1O
3. FC(F)(F)c1ccc(-c2ccc(Oc3cncc4sc(-c5nn[nH]n5)cc34)cc2)cc1
4. COc1cc2ncn(-c3cc(OCc4ccccc4S(C)(=O)=O)c(C#N)s3)c2cc1OC
5. N#Cc1c(O)c2c(-c3ccc(-c4ccccc4O)cc3)csc2[nH]c1=O
6. Cc1ccc(=O)n(-c2ccccc2)c1

a:
1. 20
2. 92
3. 71
4. 28
5. 69
6. 112

For every item in the list below, what is its measured residual activity?
1. CCOC(=O)c1ccc(N2NC(=O)/C(=C/c3ccc([N+](=O)[O-])o3)C2=O)cc1
2. COC(=O)/C=C/C(=O)OC
3. CNc1nc(-c2ccc3c(N)n[nH]c3c2)cc(N2C[C@@H](C(=O)NC3CCCCC3)CC[C@H]2C)n1
4. O=C(Nc1ccccc1-c1cn2c(CN3CCNCC3)csc2n1)c1cnc2ccccc2n1
5. O=S(=O)(c1ccc(F)c2nonc12)N1CCN(c2ncc(C(F)(F)F)cc2Cl)CC1

a:
1: 104; 2: 88; 3: 84; 4: 30; 5: 103

// for each compound below, give its residual activity
1. CC1=C(CO)C(=O)O[C@@H]([C@@H](C)[C@H]2CC[C@H]3[C@@H]4C[C@H]5O[C@]56[C@@H](O)C=CC(=O)[C@]6(C)C4CC[C@]23C)C1 (stereo partly specified)
2. CCCC(CCC)C(=O)O
3. CCNc1nc(Nc2cc(F)c(C(=O)N3CCOCC3)cc2OC)ncc1C(F)(F)F
4. CCCCCc1ccc(/C=C/[C@H](O)[C@@H](CO)NC)cc1
5. c1ccc2c(-c3cnn4cc(-c5ccc(N6CCNCC6)cc5)cnc34)ccnc2c1
6. Oc1ccc(/C=C/c2cc(O)cc(O)c2)cc1
7. O=C(NOCC(O)CO)c1ccc(F)c(F)c1Nc1ccc(I)cc1Cl (stereo unspecified)

a:
1: 97; 2: 91; 3: 63; 4: 86; 5: 38; 6: 67; 7: 78
